system: OVCAR-3 ovarian; assay: NCI-60 one-dose screen, 48 h; settings: 10 µM unless noted
This is part of a sample that, as a whole, favours compounds with a hit. Of some 83,000 tested, about 20% had one in any assay. Active and inactive are the calls of the source. Rule for the calls: active = growth percent below 10; inactive = the rest.
Your response should consist of one outcome taken from active, inactive

COc1cc(/C=C/C(=O)c2ccc(Nc3nc(NCCO)nc(N4CCOCC4)n3)cc2)cc(OC)c1OC
active
COc1ccc(/C=C/C(=O)c2ccc(Nc3nc(NCCO)nc(Nc4ccc(Cl)cc4)n3)cc2)cc1
inactive
N#Cc1c(N)nc2c(c1N)C(c1ccc(F)cc1)c1ccc(N)cc1O2 (stereo not drawn)
inactive
COc1ccc(C2Nc3ncnc(N)c3N=C3c4ccccc4C(=O)C32)cc1 (stereo not drawn)
inactive

[Q] Assay outcome for CC(C)CCNCC(O)Cn1c2ccccc2c2ccccc21 (stereo not drawn) : what was it?
[A] active

[Q] Status in this test for COc1ccc(CSc2nnc(SCC(=O)Nc3ccc(Cl)cc3)s2)cc1 ?
[A] inactive

[Q] I'd appreciate the recorded outcome for CCOC(=O)c1sc(-c2ccc(OS(=O)(=O)c3ccccc3[N+](=O)[O-])c(C=O)c2)nc1C from this test.
[A] inactive

[Q] Please let me know the test result on file for O=c1oc2ccc(F)cc2c(=O)n1-c1ccc(I)cc1F .
[A] active
